# System: K24384-001-R-PDC complex spheroid viability
# protocol_summary: Anticancer human tumor K24384-001-R-PDC patient-derived pancreatic adenocarcinoma cell line growth inhibition
# assay_setup: second compound 3.16 µM; first compound 1 µM; stronger effect = lower value
Documented viability, T/C across a set of molecules
value_type: viability, T/C (%)

| molecule | measured_result |
| --- | --- |
| COc1ccc([C@@H](O)c2cc(-c3ncnc4cc(N5CCOCC5)ccc34)c(F)cc2Cl)nn1 + NC1CC1c1ccc(-c2cccc(O)c2)cc1 | 62.7 |
| COc1cc(Nc2ncc3c(n2)-c2ccc(Cl)cc2C(c2c(F)cccc2OC)=NC3)ccc1C(=O)O + NC1CC1c1ccc(-c2cccc(O)c2)cc1 | 49.8 |
| O=C(c1cc(Cc2n[nH]c(=O)c3ccccc23)ccc1F)N1CCN(C(=O)C2CC2)CC1 + NC1CC1c1ccc(-c2cccc(O)c2)cc1 | 72.2 |
| CC1COCCN1c1cc(C2(S(C)(=N)=O)CC2)nc(-c2ccnc3[nH]ccc23)n1 (stereo not drawn) + NC1CCC(NC2CC2c2ccccc2)CC1 | 60.4 |
| CC(C)c1c(-c2ccccc2)nc2c(C#N)c[nH]n2c1=O + NC1CC1c1ccc(-c2cccc(O)c2)cc1 | 66.9 |
| Nc1ncn(C2CC(O)C(CO)O2)c(=O)n1 (stereo not drawn) + NC1CCC(NC2CC2c2ccccc2)CC1 | 60.9 |
| CC1COCCN1c1cc(C2(S(C)(=N)=O)CC2)nc(-c2ccnc3[nH]ccc23)n1 (stereo not drawn) + NC1CC1c1ccc(-c2cccc(O)c2)cc1 | 56.7 |
| COc1ccc([C@@H](O)c2cc(-c3ncnc4cc(N5CCOCC5)ccc34)c(F)cc2Cl)nn1 + NC1CCC(NC2CC2c2ccccc2)CC1 | 55 |

###

# Tested on: K24384-001-R-PDC complex spheroid viability
# protocol_summary: Anticancer human tumor K24384-001-R-PDC cell line growth inhibition;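 also: spheroids exposed to agents for seven days before luminescence viability reading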;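 as to viability, T/C: 100% = DMSO vehicle control viability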
# assay_setup: second compound 1 µM; first compound 0.003 µM; stronger effect = lower value
Simple rule here: viability, T/C less than 70% is criterion met, otherwise criterion not met.

| compound | assigned_label |
| --- | --- |
| Nc1ccn(C2OC(CO)C(O)C2(F)F)c(=O)n1 (stereo unspecified) + NC1CC1c1ccc(-c2cccc(O)c2)cc1 | criterion not met |
| CCc1c2c(nc3ccc(O)cc13)-c1cc3c(c(=O)n1C2)COC(=O)[C@]3(O)CC + NC1CCC(NC2CC2c2ccccc2)CC1 | criterion met |
| Nc1ncn(C2CC(O)C(CO)S2)c(=O)n1 (stereo unspecified) + NC1CCC(NC2CC2c2ccccc2)CC1 | criterion not met |
| Nc1ncn(C2CC(O)C(CO)S2)c(=O)n1 (stereo unspecified) + NC1CC1c1ccc(-c2cccc(O)c2)cc1 | criterion not met |
| CCc1c2c(nc3ccc(O)cc13)-c1cc3c(c(=O)n1C2)COC(=O)[C@]3(O)CC + NC1CC1c1ccc(-c2cccc(O)c2)cc1 | criterion met |

###

Documented pIC50 across a set of compounds
# System: K24384-001-R-PDC complex spheroid viability
# protocol_summary: Anticancer human tumor K24384-001-R-PDC cell line growth inhibition;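 also: spheroids exposed to agents for seven days before luminescence viability reading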
# assay_setup: curve of first compound; second compound 3.16 µM
pIC50: −log10 of the molar value.
value_type: pIC50

| compound | value_type | value_modifier | measured_result |
| --- | --- | --- | --- |
| CCN(c1cc(-c2ccc(CN3CCOCC3)cc2)cc(C(=O)NCc2c(C)cc(C)[nH]c2=O)c1C)C1CCOCC1 + NC1CC1c1ccc(-c2cccc(O)c2)cc1 | pIC50 | < | 5.52 |
| NS(=O)(=O)OCC1CC(n2ccc3c(NC4CCc5ccccc54)ncnc32)CC1O (configuration not stated) + NC1CCC(NC2CC2c2ccccc2)CC1 | pIC50 | = | 6.35 |
| CC1(C)CCC(CN2CCN(c3ccc(C(=O)NS(=O)(=O)c4ccc(NCC5CCOCC5)c([N+](=O)[O-])c4)c(Oc4cnc5[nH]ccc5c4)c3)CC2)=C(c2ccc(Cl)cc2)C1 + NC1CC1c1ccc(-c2cccc(O)c2)cc1 | pIC50 | = | 5.57 |
| NS(=O)(=O)OCC1CC(n2ccc3c(NC4CCc5ccccc54)ncnc32)CC1O (configuration not stated) + NC1CC1c1ccc(-c2cccc(O)c2)cc1 | pIC50 | = | 6.38 |
| CC1(C)CCC(CN2CCN(c3ccc(C(=O)NS(=O)(=O)c4ccc(NCC5CCOCC5)c([N+](=O)[O-])c4)c(Oc4cnc5[nH]ccc5c4)c3)CC2)=C(c2ccc(Cl)cc2)C1 + NC1CCC(NC2CC2c2ccccc2)CC1 | pIC50 | = | 5.51 |
| O=C(C=Cn1cnc(-c2cc(C(F)(F)F)cc(C(F)(F)F)c2)n1)NNc1cnccn1 + NC1CC1c1ccc(-c2cccc(O)c2)cc1 | pIC50 | = | 7.67 |
| CC(C)CC(NC(=O)C(Cc1ccccc1)NC(=O)c1cnccn1)B(O)O (configuration not stated) + NC1CCC(NC2CC2c2ccccc2)CC1 | pIC50 | = | 9.46 |
| CC1COCCN1c1cc(C2(S(C)(=N)=O)CC2)nc(-c2ccnc3[nH]ccc23)n1 (configuration not stated) + NC1CC1c1ccc(-c2cccc(O)c2)cc1 | pIC50 | = | 5.88 |
| Nc1ccn(C2OC(CO)C(O)C2(F)F)c(=O)n1 (configuration not stated) + NC1CCC(NC2CC2c2ccccc2)CC1 | pIC50 | = | 7.06 |
| COc1cc(Nc2ncc3c(n2)-c2ccc(Cl)cc2C(c2c(F)cccc2OC)=NC3)ccc1C(=O)O + NC1CC1c1ccc(-c2cccc(O)c2)cc1 | pIC50 | = | 7.47 |
| CC1COCCN1c1cc(C2(S(C)(=N)=O)CC2)nc(-c2ccnc3[nH]ccc23)n1 (configuration not stated) + NC1CCC(NC2CC2c2ccccc2)CC1 | pIC50 | = | 5.74 |
| CC(C)CC(NC(=O)CNC(=O)c1cc(Cl)ccc1Cl)B1OC(=O)CC(CC(=O)O)(C(=O)O)O1 (configuration not stated) + NC1CCC(NC2CC2c2ccccc2)CC1 | pIC50 | = | 8.25 |
| COc1cc(Nc2ncc3c(n2)-c2ccc(Cl)cc2C(c2c(F)cccc2OC)=NC3)ccc1C(=O)O + NC1CCC(NC2CC2c2ccccc2)CC1 | pIC50 | < | 6.00 |
| CC1COCCN1c1cc(-c2ccnn2C)c2ccnc(-c3ccn[nH]3)c2n1 (configuration not stated) + NC1CC1c1ccc(-c2cccc(O)c2)cc1 | pIC50 | = | 7.98 |
| Cn1ncnc1C1c2n[nH]c(=O)c3cc(F)cc(c23)NC1c1ccc(F)cc1 (configuration not stated) + NC1CCC(NC2CC2c2ccccc2)CC1 | pIC50 | < | 7.00 |
| Nc1ncn(C2CC(O)C(CO)S2)c(=O)n1 (configuration not stated) + NC1CCC(NC2CC2c2ccccc2)CC1 | pIC50 | < | 6.52 |
| Nc1ncn(C2CC(O)C(CO)S2)c(=O)n1 (configuration not stated) + NC1CC1c1ccc(-c2cccc(O)c2)cc1 | pIC50 | < | 6.52 |
| CCc1c2c(nc3ccc(O)cc13)-c1cc3c(c(=O)n1C2)COC(=O)[C@]3(O)CC + NC1CCC(NC2CC2c2ccccc2)CC1 | pIC50 | > | 9.02 |
| O=C(c1cc(Cc2n[nH]c(=O)c3ccccc23)ccc1F)N1CCN(C(=O)C2CC2)CC1 + NC1CC1c1ccc(-c2cccc(O)c2)cc1 | pIC50 | < | 5.00 |
| COc1cc(C2c3cc4c(cc3C(OC3OC5COC(C)OC5C(O)C3O)C3COC(=O)C23)OCO4)cc(OC)c1O (configuration not stated) + NC1CC1c1ccc(-c2cccc(O)c2)cc1 | pIC50 | = | 6.56 |
| Nc1ccn(C2OC(CO)C(O)C2(F)F)c(=O)n1 (configuration not stated) + NC1CC1c1ccc(-c2cccc(O)c2)cc1 | pIC50 | = | 7.34 |
| COc1ccc([C@@H](O)c2cc(-c3ncnc4cc(N5CCOCC5)ccc34)c(F)cc2Cl)nn1 + NC1CCC(NC2CC2c2ccccc2)CC1 | pIC50 | = | 5.93 |
| CC(C)c1c(-c2ccccc2)nc2c(C#N)c[nH]n2c1=O + NC1CCC(NC2CC2c2ccccc2)CC1 | pIC50 | < | 5.00 |
| CCN(c1cc(-c2ccc(CN3CCOCC3)cc2)cc(C(=O)NCc2c(C)cc(C)[nH]c2=O)c1C)C1CCOCC1 + NC1CCC(NC2CC2c2ccccc2)CC1 | pIC50 | < | 5.52 |
| Cn1ncnc1C1c2n[nH]c(=O)c3cc(F)cc(c23)NC1c1ccc(F)cc1 (configuration not stated) + NC1CC1c1ccc(-c2cccc(O)c2)cc1 | pIC50 | < | 7.00 |
| COc1cc(C2c3cc4c(cc3C(OC3OC5COC(C)OC5C(O)C3O)C3COC(=O)C23)OCO4)cc(OC)c1O (configuration not stated) + NC1CCC(NC2CC2c2ccccc2)CC1 | pIC50 | < | 5.52 |
| CC[C@@]1(O)C(=O)OCc2c1cc1n(c2=O)Cc2cc3c(CN(C)C)c(O)ccc3nc2-1 + NC1CCC(NC2CC2c2ccccc2)CC1 | pIC50 | = | 7.07 |

The values you see were collected from PubChem BioAssay AID1918949.
